- Tested on: HCT-116 colon
- assay: NCI-60 one-dose screen, 48 h
- measurementParameters: 10 µM
Compounds without any hit were thinned out: in the full panel of roughly 83,000, 20% have a hit. Activity calls are given as the source filed them. Rule for the calls: active = growth percent below 10; inactive = the rest.
Classes used: active, inactive

>  <compound>
COCCOCCOCCOc1ccc(-n2cc(-c3ccc(O[C@H]4O[C@@H]5OC6(C)CC[C@H]7[C@H](C)CC[C@@H]([C@H]4C)[C@@]57OO6)cc3)nn2)cc1

>  <labelClass>
inactive

$$$$
>  <compound>
CC12OOC(C)(OO1)C2CCC(=O)OCCNc1ccnc2cc(Cl)ccc12 (stereo not given)

>  <labelClass>
active

$$$$
>  <compound>
O=C([Se]C1C=CCCC1)c1ccc(C(=O)[Se]C2C=CCCC2)s1 (stereo not given)

>  <labelClass>
active

$$$$
>  <compound>
O=C(/C=C/c1ccc(Br)cc1)c1nc2ccccc2n1Cc1ccc(Br)cc1

>  <labelClass>
active

$$$$
>  <compound>
C[C@H]1[C@H](OC(=O)CCC(=O)N(CCCc2cn(-c3ccc(C#N)cc3)nn2)CCNc2ccnc3cc(Cl)ccc23)O[C@@H]2OC3(C)CC[C@H]4[C@H](C)CC[C@@H]1[C@@]24OO3

>  <labelClass>
inactive

$$$$

----------
Parameter growth: see the listing below.
- System: KM12 colon
- assay: NCI-60 one-dose screen, 48 h (100 = growth as untreated, 0 = no growth, -100 = all killed)
- measurementParameters: 10 µM
Compounds without any hit were thinned out: in the full panel of roughly 83,000, 20% have a hit.

>  <molecule>
O=C(/C=C/c1ccc(F)cc1)c1nc2ccccc2n1Cc1ccc(F)cc1

>  <displayUnit>
%

>  <growth>
-4.81

$$$$
>  <molecule>
CCOP(=O)(CC(F)(F)C(F)(F)F)OCC

>  <displayUnit>
%

>  <growth>
89.3

$$$$
>  <molecule>
C[C@H]1[C@H](OC(=O)CCC(=O)N(CCCc2cn(-c3ccc([N+](=O)[O-])cc3)nn2)CCNc2ccnc3cc(Cl)ccc23)O[C@@H]2OC3(C)CC[C@H]4[C@H](C)CC[C@@H]1[C@@]24OO3

>  <displayUnit>
%

>  <growth>
33.6

$$$$
>  <molecule>
C[C@H]1[C@H](OC(=O)CCC(=O)N(CCCc2cn(-c3ccc(C#N)cc3)nn2)CCNc2ccnc3cc(Cl)ccc23)O[C@@H]2OC3(C)CC[C@H]4[C@H](C)CC[C@@H]1[C@@]24OO3

>  <displayUnit>
%

>  <growth>
31.4

$$$$

----------
// reported growth for each item listed
- Test system: T-47D breast
- assay: NCI-60 one-dose screen, 48 h (100 = growth as untreated, 0 = no growth, -100 = all killed)
- measurementParameters: 10 µM
This is part of a sample that, as a whole, favours compounds with a hit. Of some 83,000 tested, about 20% had one in any assay.

>  <compound>
COc1ccc2cc([C@H](C)C(=O)[Se]CCC#N)ccc2c1

>  <displayUnit>
%

>  <growth>
12

$$$$
>  <compound>
C#CC[Se]C(=O)c1ccc(C(=O)[Se]CC#C)s1

>  <displayUnit>
%

>  <growth>
88.8

$$$$
>  <compound>
C[C@H]1[C@@H](Oc2ccc(-c3cn(-c4ccnc5cc(Cl)ccc45)nn3)cc2)O[C@@H]2OC3(C)CC[C@H]4[C@H](C)CC[C@@H]1[C@@]24OO3

>  <displayUnit>
%

>  <growth>
25.6

$$$$
>  <compound>
O=C(/C=C/c1ccc(Cl)cc1)c1nc2ccccc2n1Cc1ccc(Br)cc1

>  <displayUnit>
%

>  <growth>
28

$$$$
>  <compound>
O=C(NC([Se])=NC1CCCCC1)c1ccc2c(c1)OCO2

>  <displayUnit>
%

>  <growth>
-0.387

$$$$
>  <compound>
CN(C)CCc1cn(C2CCC2)c2cccc(O)c12

>  <displayUnit>
%

>  <growth>
69.9

$$$$
>  <compound>
Cc1ccc2[nH]c(=S)n(-c3ccc(F)cc3)c(=O)c2c1

>  <displayUnit>
%

>  <growth>
93.5

$$$$
>  <compound>
CC[C@]12C=CCN3CC[C@@]4(c5ccc(OC)cc5N(C)[C@H]4[C@@](O)(C(=O)OC)[C@@H]1OC(=O)CCCC[P+](c1ccc(OC)cc1)(c1ccc(OC)cc1)c1ccc(OC)cc1)[C@@H]32

>  <displayUnit>
%

>  <growth>
-46.6

$$$$
>  <compound>
CCOP(=O)(OCC)C(NC(C)=O)C(=O)SCCN (stereo not given)

>  <displayUnit>
%

>  <growth>
99.6

$$$$
>  <compound>
CC1=C2C(=C[C@@](C)(COP(=O)(Oc3ccccc3)Oc3ccccc3)[C@@H]2O)C(=O)[C@@](C)(O)C12CC2

>  <displayUnit>
%

>  <growth>
-47.8

$$$$
>  <compound>
C=CC[Se]C(=O)c1ccc(C(=O)[Se]CC=C)s1

>  <displayUnit>
%

>  <growth>
-40.4

$$$$
>  <compound>
O=C(NC([Se])=NC1CCCCC1)c1ccccc1

>  <displayUnit>
%

>  <growth>
46

$$$$
>  <compound>
C=CCN=C([Se])NC(=O)c1ccc2c(c1)OCO2

>  <displayUnit>
%

>  <growth>
96.6

$$$$
>  <compound>
CC12OOC(C)(OO1)C2CCC(=O)OCCNc1ccnc2cc(Cl)ccc12 (stereo not given)

>  <displayUnit>
%

>  <growth>
16.5

$$$$
>  <compound>
CC[C@]12C=CCN3CC[C@@]4(c5ccc(OC)cc5N(C)[C@H]4[C@@](O)(C(=O)OC)[C@@H]1OC(=O)CCCC[P+](C1CCCCC1)(C1CCCCC1)C1CCCCC1)[C@@H]32

>  <displayUnit>
%

>  <growth>
3.83

$$$$
>  <compound>
O=C(/C=C/c1ccc(Cl)cc1Cl)c1nc2ccccc2n1Cc1ccc(Br)cc1

>  <displayUnit>
%

>  <growth>
44.4

$$$$
>  <compound>
CCOC(=O)C1=C(Nc2ccccc2)C(=O)OC12C(=O)Nc1ccccc12 (stereo not given)

>  <displayUnit>
%

>  <growth>
110

$$$$
>  <compound>
CCOP(=O)(CC(F)(F)C(F)(F)F)OCC

>  <displayUnit>
%

>  <growth>
17.3

$$$$
>  <compound>
CC(=O)Oc1ccccc1C(=O)[Se]C(=NC(C)C)NC(C)C

>  <displayUnit>
%

>  <growth>
-45.6

$$$$
>  <compound>
COCCOCCOCCOc1ccc(-n2cc(-c3ccc(O[C@H]4O[C@@H]5OC6(C)CC[C@H]7[C@H](C)CC[C@@H]([C@H]4C)[C@@]57OO6)cc3)nn2)cc1

>  <displayUnit>
%

>  <growth>
17.3

$$$$
